- targetOrSystem: T1, Sumo-ELL2^Occ (human, UniProt O00472 519-640)
- T1 sequence (looked up): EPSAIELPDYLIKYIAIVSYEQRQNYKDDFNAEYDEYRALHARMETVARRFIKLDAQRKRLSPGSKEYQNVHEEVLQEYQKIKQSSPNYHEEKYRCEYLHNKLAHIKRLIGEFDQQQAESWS
- testProtocol: fluorescence polarisation
- testConditions: both partners purified
Consider the cut-off 200 nM. If the recorded Kd is strictly smaller, the label is Yes; if not, the label is No.

[
  {
    "binder": "His6-AFF4^ELLBow W327D (domain or fragment, human, UniProt Q9UHB7 301-351, looked up) PSQPLDASASGDVSCVDEILKEMTHSDPPPLTAIHTPCKTEPSKFPFPTKE",
    "labelValue": "No"
  },
  {
    "binder": "EILKEMTHSWPPPLTAIHTPCKTEPSKFPFPTK (peptide, UniProt Q9UHB7 318-350, looked up) [AFF4 WT, 318-350 peptide]",
    "labelValue": "No"
  },
  {
    "binder": "His6-AFF4^ELLBow L331D/I334D (domain or fragment, human, UniProt Q9UHB7 301-351, looked up) PSQPLDASASGDVSCVDEILKEMTHSWPPPDTADHTPCKTEPSKFPFPTKE",
    "labelValue": "No"
  },
  {
    "binder": "His6-AFF4^ELLBow D317P/E318P (domain or fragment, human, UniProt Q9UHB7 301-351, looked up) PSQPLDASASGDVSCVPPILKEMTHSWPPPLTAIHTPCKTEPSKFPFPTKE",
    "labelValue": "No"
  },
  {
    "binder": "His6-AFF4^ELLBow I319D/L320D (domain or fragment, human, UniProt Q9UHB7 301-351, looked up) PSQPLDASASGDVSCVDEDDKEMTHSWPPPLTAIHTPCKTEPSKFPFPTKE",
    "labelValue": "No"
  },
  {
    "binder": "His6-AFF4^ELLBow I334D (domain or fragment, human, UniProt Q9UHB7 301-351, looked up) PSQPLDASASGDVSCVDEILKEMTHSWPPPLTADHTPCKTEPSKFPFPTKE",
    "labelValue": "No"
  },
  {
    "binder": "His6-AFF4^ELLBow T332K (domain or fragment, human, UniProt Q9UHB7 301-351, looked up) PSQPLDASASGDVSCVDEILKEMTHSWPPPLKAIHTPCKTEPSKFPFPTKE",
    "labelValue": "Yes"
  },
  {
    "binder": "His6-AFF4^ELLBow V316D (domain or fragment, human, UniProt Q9UHB7 301-351, looked up) PSQPLDASASGDVSCDDEILKEMTHSWPPPLTAIHTPCKTEPSKFPFPTKE",
    "labelValue": "No"
  },
  {
    "binder": "His6-AFF4^ELLBow E322H (domain or fragment, human, UniProt Q9UHB7 301-351, looked up) PSQPLDASASGDVSCVDEILKHMTHSWPPPLTAIHTPCKTEPSKFPFPTKE",
    "labelValue": "Yes"
  },
  {
    "binder": "His6-AFF4^ELLBow F345D/F347D (domain or fragment, human, UniProt Q9UHB7 301-351, looked up) PSQPLDASASGDVSCVDEILKEMTHSWPPPLTAIHTPCKTEPSKDPDPTKE",
    "labelValue": "Yes"
  }
]
